The entries below come with measured pIC50 values attached.
Molecular target: LRRK2 G2019S (Homo sapiens (Human), UniProt Q5S007, G2019S)
Sequence (Q5S007 whole entry G2019S): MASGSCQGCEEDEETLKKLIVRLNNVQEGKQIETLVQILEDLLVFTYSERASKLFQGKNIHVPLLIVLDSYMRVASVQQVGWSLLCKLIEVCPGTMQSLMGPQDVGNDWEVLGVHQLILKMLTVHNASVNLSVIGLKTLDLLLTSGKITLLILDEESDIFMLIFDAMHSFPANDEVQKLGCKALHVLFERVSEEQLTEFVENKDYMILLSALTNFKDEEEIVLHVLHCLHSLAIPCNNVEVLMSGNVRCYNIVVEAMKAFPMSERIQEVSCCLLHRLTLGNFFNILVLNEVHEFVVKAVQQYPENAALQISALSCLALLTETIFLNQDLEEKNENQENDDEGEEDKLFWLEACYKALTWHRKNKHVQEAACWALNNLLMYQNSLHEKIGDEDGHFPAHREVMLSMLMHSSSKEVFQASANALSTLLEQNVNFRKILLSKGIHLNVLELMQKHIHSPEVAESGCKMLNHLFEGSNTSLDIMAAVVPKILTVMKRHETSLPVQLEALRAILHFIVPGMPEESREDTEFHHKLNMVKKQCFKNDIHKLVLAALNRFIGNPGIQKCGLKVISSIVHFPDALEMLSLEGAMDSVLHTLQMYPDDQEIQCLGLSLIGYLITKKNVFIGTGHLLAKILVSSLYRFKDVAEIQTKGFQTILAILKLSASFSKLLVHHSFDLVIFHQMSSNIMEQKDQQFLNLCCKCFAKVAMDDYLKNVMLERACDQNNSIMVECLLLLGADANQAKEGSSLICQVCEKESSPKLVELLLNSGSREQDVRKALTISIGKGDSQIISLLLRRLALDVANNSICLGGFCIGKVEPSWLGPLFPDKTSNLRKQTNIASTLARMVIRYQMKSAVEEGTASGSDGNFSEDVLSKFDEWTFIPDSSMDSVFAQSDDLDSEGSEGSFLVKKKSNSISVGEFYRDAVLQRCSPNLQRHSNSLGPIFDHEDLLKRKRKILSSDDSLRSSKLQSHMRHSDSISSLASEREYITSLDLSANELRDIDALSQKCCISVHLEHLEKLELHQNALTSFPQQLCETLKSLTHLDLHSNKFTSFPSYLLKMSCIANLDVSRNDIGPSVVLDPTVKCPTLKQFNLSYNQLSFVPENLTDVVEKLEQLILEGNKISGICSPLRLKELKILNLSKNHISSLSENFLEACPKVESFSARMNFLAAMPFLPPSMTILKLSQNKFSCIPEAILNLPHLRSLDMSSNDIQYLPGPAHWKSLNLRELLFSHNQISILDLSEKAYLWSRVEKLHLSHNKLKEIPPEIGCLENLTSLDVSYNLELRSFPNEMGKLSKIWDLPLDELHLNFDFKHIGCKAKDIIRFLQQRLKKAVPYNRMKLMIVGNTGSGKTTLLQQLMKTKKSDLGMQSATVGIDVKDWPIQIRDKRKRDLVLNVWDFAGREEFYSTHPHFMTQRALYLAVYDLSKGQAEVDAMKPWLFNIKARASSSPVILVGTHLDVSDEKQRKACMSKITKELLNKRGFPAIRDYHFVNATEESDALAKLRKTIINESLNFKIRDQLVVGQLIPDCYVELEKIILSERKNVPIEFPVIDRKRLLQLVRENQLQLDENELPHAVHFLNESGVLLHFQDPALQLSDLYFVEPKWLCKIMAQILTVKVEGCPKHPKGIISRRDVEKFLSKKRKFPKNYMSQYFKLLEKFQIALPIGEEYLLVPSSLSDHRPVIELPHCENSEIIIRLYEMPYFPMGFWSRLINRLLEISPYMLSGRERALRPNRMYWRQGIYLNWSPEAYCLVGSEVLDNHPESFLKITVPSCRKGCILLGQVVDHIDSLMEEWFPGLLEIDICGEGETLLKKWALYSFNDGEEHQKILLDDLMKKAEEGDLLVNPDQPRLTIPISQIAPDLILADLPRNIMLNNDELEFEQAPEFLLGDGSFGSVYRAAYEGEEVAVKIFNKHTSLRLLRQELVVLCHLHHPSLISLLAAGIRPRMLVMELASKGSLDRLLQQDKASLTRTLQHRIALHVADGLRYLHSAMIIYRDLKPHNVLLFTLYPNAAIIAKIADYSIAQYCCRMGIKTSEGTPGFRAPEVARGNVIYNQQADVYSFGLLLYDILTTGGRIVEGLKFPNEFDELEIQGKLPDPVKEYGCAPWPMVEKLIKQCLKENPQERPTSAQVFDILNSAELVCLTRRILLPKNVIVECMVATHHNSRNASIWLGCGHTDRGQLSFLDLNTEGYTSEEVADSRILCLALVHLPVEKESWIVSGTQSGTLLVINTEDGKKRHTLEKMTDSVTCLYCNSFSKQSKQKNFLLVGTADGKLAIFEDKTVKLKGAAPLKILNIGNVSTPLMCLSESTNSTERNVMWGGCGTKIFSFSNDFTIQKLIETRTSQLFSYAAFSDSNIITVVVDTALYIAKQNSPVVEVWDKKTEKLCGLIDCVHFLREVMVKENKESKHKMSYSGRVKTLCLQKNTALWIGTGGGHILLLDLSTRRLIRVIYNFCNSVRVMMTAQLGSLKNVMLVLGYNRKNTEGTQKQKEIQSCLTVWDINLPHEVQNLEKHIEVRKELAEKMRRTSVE
Assay: LRRK2 G2019S kinase assay (Adapta)
Settings: 100 µM ATP, LRRKtide substrate; read-out: LRRK2_G2019S IC50
pIC50: −log10 of the molar value.

COMPOUND: O=C(Nc1cc2cc(-c3cnc4[nH]ccc4c3)ccn2n1)[C@@H]1C[C@@H]1F [Example 1]
pIC50: 7.55
//
COMPOUND: O=C(Nc1cc2cc(-c3cnc4[nH]ccc4c3Cl)ccn2n1)[C@@H]1C[C@@H]1F [Example 2]
pIC50: 7.82

###

Tested on: IL-6 secretion in BV-2 cell
Assay: IL-6 Secretion in BV-2 Cell (L18-MDP stimulated, ELISA)
Assay type: cell-based
Details: BV-2 mouse microglia cells, 10 µg/ml L18-MDP, 24 hr
pIC50: −log10 of the molar value.
PARAMETER: pIC50

COMPOUND: Cc1cc2cc(-c3ccn4nc(NC(=O)[C@@H]5C[C@@H]5F)cc4c3)cnc2[nH]1 [Example 8]
PARAMETER: pIC50
RECORDED_MEASUREMENT: 6.20
//
COMPOUND: O=C(Nc1cc2cc(-c3cnc4[nH]ccc4c3Cl)ccn2n1)[C@H]1C[C@@H]1F [Example 27]
PARAMETER: pIC50
RECORDED_MEASUREMENT: 6.79
//
COMPOUND: O=C(Nc1cc2cc(-c3cnc4[nH]ccc4c3Cl)ccn2n1)[C@@H]1C[C@@H]1F [Example 2]
PARAMETER: pIC50
RECORDED_MEASUREMENT: 7.16
//
COMPOUND: Cc1c(-c2ccn3nc(NC(=O)[C@H]4C[C@H]4F)cc3c2)cnc2[nH]ccc12 [Example 20]
PARAMETER: pIC50
RECORDED_MEASUREMENT: 7.18

###

Molecular target: GST-tagged recombinant human RIPK2 (Homo sapiens (Human), UniProt O43353)
Sequence (O43353 whole entry): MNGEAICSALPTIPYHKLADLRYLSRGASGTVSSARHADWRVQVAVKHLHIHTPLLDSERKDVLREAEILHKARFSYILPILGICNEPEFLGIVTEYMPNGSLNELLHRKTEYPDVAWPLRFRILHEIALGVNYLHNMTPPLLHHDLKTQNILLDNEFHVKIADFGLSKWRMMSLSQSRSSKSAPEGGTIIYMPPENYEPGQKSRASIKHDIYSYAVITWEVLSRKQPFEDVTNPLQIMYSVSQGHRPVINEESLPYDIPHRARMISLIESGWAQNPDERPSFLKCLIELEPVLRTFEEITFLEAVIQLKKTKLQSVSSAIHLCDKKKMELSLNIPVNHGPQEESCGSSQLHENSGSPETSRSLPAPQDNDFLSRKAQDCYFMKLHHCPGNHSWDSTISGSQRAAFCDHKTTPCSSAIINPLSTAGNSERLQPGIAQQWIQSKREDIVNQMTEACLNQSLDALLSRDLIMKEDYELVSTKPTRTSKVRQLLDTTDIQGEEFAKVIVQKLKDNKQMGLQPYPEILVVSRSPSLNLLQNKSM
Experiment: RIP2 Kinase Assay (ADP-Glo)
Conditions: 25 µM ATP, MBP substrate, 30° C. 60 minutes

COMPOUND: Cc1c(-c2ccn3nc(NC(=O)[C@H]4C[C@@H]4F)cc3c2)cnc2[nH]ccc12 [Example 21]
SYSTEM_TESTED: GST-tagged recombinant human RIPK2 (Homo sapiens (Human), UniProt O43353)
IC50 / nM: 8.25

COMPOUND: O=C(Nc1cc2cc(-c3cnc4[nH]cc(F)c4c3)ccn2n1)[C@@H]1C[C@@H]1F [Example 7]
SYSTEM_TESTED: GST-tagged recombinant human RIPK2 (Homo sapiens (Human), UniProt O43353)
IC50 / nM: 24.3

COMPOUND: O=C(Nc1cc2cc(-c3cnc4[nH]ccc4c3F)ccn2n1)[C@@H]1C[C@@H]1F [Example 5]
SYSTEM_TESTED: GST-tagged recombinant human RIPK2 (Homo sapiens (Human), UniProt O43353)
IC50 / nM: 48.4

COMPOUND: O=C(Nc1cc2cc(-c3cnc4[nH]c(Cl)cc4c3)ccn2n1)[C@@H]1C[C@@H]1F [Example 18]
SYSTEM_TESTED: GST-tagged recombinant human RIPK2 (Homo sapiens (Human), UniProt O43353)
IC50 / nM: 30.5

COMPOUND: O=C(Nc1cc2cc(-c3cnc4[nH]ccc4c3C3CC3)ccn2n1)[C@@H]1C[C@@H]1F [Example 16]
SYSTEM_TESTED: GST-tagged recombinant human RIPK2 (Homo sapiens (Human), UniProt O43353)
IC50 / nM: 204

COMPOUND: N#Cc1c(-c2ccn3nc(NC(=O)[C@@H]4C[C@@H]4F)cc3c2)cnc2[nH]ccc12 [Example 17]
SYSTEM_TESTED: GST-tagged recombinant human RIPK2 (Homo sapiens (Human), UniProt O43353)
IC50 / nM: 70.2

COMPOUND: Cc1nc2[nH]ccc2cc1-c1ccn2nc(NC(=O)[C@@H]3C[C@@H]3F)cc2c1 [Example 3]
SYSTEM_TESTED: GST-tagged recombinant human RIPK2 (Homo sapiens (Human), UniProt O43353)
IC50 / nM: 25

COMPOUND: Cc1c(-c2ccn3nc(NC(=O)[C@@H]4C[C@@H]4F)cc3c2)cnc2[nH]ccc12 [Example 9]
SYSTEM_TESTED: GST-tagged recombinant human RIPK2 (Homo sapiens (Human), UniProt O43353)
IC50 / nM: 8.77

COMPOUND: Cc1c(-c2ccn3nc(NC(=O)[C@@H]4C[C@H]4F)cc3c2)cnc2[nH]ccc12 [Example 22]
SYSTEM_TESTED: GST-tagged recombinant human RIPK2 (Homo sapiens (Human), UniProt O43353)
IC50 / nM: 15.9

COMPOUND: Cc1c[nH]c2ncc(-c3ccn4nc(NC(=O)[C@@H]5C[C@@H]5F)cc4c3)cc12 [Example 12]
SYSTEM_TESTED: GST-tagged recombinant human RIPK2 (Homo sapiens (Human), UniProt O43353)
IC50 / nM: 88.6

COMPOUND: COc1c(-c2ccn3nc(NC(=O)[C@@H]4C[C@@H]4F)cc3c2)cnc2[nH]ccc12 [Example 6]
SYSTEM_TESTED: GST-tagged recombinant human RIPK2 (Homo sapiens (Human), UniProt O43353)
IC50 / nM: 168

COMPOUND: O=C(Nc1cc2cc(-c3cnc4[nH]ccc4c3Cl)ccn2n1)C1CC1 [Example 23]
SYSTEM_TESTED: GST-tagged recombinant human RIPK2 (Homo sapiens (Human), UniProt O43353)
IC50 / nM: 19.9

COMPOUND: Cc1cc2cc(-c3ccn4nc(NC(=O)[C@@H]5C[C@@H]5F)cc4c3)cnc2[nH]1 [Example 8]
SYSTEM_TESTED: GST-tagged recombinant human RIPK2 (Homo sapiens (Human), UniProt O43353)
IC50 / nM: 84.3

COMPOUND: O=C(Nc1cc2cc(-c3cc4cc[nH]c4nc3Cl)ccn2n1)[C@@H]1C[C@@H]1F [Example 4]
SYSTEM_TESTED: GST-tagged recombinant human RIPK2 (Homo sapiens (Human), UniProt O43353)
IC50 / nM: 13.9

COMPOUND: O=C(Nc1cc2cc(-c3cnc4[nH]ccc4c3Cl)ccn2n1)[C@H]1C[C@H]1F [Example 28]
SYSTEM_TESTED: GST-tagged recombinant human RIPK2 (Homo sapiens (Human), UniProt O43353)
IC50 / nM: 21.5

COMPOUND: O=C(Nc1cc2cc(-c3cnc4[nH]ccc4c3Cl)ccn2n1)[C@@H]1C[C@H]1F [Example 26]
SYSTEM_TESTED: GST-tagged recombinant human RIPK2 (Homo sapiens (Human), UniProt O43353)
IC50 / nM: 16.1

COMPOUND: O=C(Nc1cc2cc(-c3cnc4[nH]ccc4c3Cl)ccn2n1)[C@H]1C[C@@H]1F [Example 27]
SYSTEM_TESTED: GST-tagged recombinant human RIPK2 (Homo sapiens (Human), UniProt O43353)
IC50 / nM: 15.1
